- TARGET_ENTITY: Autotaxin (Homo sapiens, UniProt Q13822)
- ASSAY: Inhibition of C-terminal FLAG-tagged human recombinant autotaxin using synthetic substrate FS-3 at 10 uM measured every 2 mins by FRET assay relative to control
MEASURE: inhibition (%)

(P) CC(O)C(NC(=O)c1ccc(N2CCN(C(=O)CCC(=O)c3ccccc3)CC2)nc1)C(N)=O (centres undefined)
(Q) CCCCCCOc1ccc(/C=N/c2ccc(C)cc2)cc1
(R) COc1cc(C(=O)NCCNc2nc3cc4c(cc3cc2C#N)OCO4)cc(OC)c1OC
(S) CC(O)C(NC(=O)c1cccnc1N1CCC(CCCC2CCN(C(=O)CCC(=O)c3ccccc3)CC2)CC1)C(N)=O (centres undefined)
Q) // ascending sort on recorded inhibition The reply should contain the labels ordered as requested.
A) Q, R, P, S

(1) COc1cc(C2CC(=O)NC(SCC(N)=O)=C2C#N)ccc1O (centres undefined)
(2) COc1ccc(CCn2c(CCc3ccccc3)nc3cc(C(=O)NCCOCCO)ccc32)cc1OC
Q) Between 1 and 2 , whose measured inhibition reads higher? Your answer should be the label attached to the chosen record.
A) 2

The origin of these recorded values is ChEMBL document CHEMBL2417420.
